Property: cytotoxicity at 70.5 h; scope: individual molecules
- method: Human HepG2 cell viability assay in 384 well format
- Format: toxicity, cell-based
- Design: dose 125 nL, time 70.5 hour; concentration not given beside the values
- condition-set: HepG2 cells, read-out: Inhibition
property: cytotoxicity at 70.5 h (%)

molecule | unit-label | recorded-measurement
O=C(N1CCOCC1)[C@@]12CCO[C@@H]1CCN(Cc1ccncc1)C2 | % | -3.44
CN(Cc1ccccc1)CC(C)(C)NC(=O)c1cnns1 | % | -0.0616
CCOc1ccccc1CN(C)C(=O)CN1C(=O)OC[C@@H]1C(C)C | % | 15.5
COCC(=O)N1CCc2ccccc2C12CCNCC2 | % | 18.5
CCC(C)c1ccc(NC(=O)C2CCN(C(=O)COC)CC2)cc1 (stereo unspecified) | % | -6.71
CC(=O)N[C@@H]1CN(C(=O)c2ccoc2)C[C@H]1c1ccc(C)cc1 | % | -13.3

----------
In this section we review reported cytotoxicity at 70.5 h values for a set of compounds.
- method: Human HepG2 cell viability assay in 384 well format
- Format: toxicity, cell-based
- Design: dose 125 nL, time 70.5 hour; concentration not given beside the values
- condition-set: HepG2 cells, read-out: Inhibition

compound | cytotoxicity at 70.5 h (%)
CC(=O)N1CCC[C@@H](NCc2c[nH]c3ccccc23)[C@@H]1c1ccc(C)s1 | -8.53
Cc1csc(N2CCCN(C(=O)c3cnns3)CC2)n1 | 31.6
O=C(c1cc(F)cc(Cl)c1)N1C[C@@H]2CC[C@H](C1)N(Cc1ccccc1)C2 | -3.75
CCc1ccc2nc(NCCOCCO)cc(C)c2c1 | -2.24
CS(=O)(=O)N1CCOCC2(CCN(Cc3ccc[nH]3)CC2)C1 | -5.4
CC(C)c1noc(C(C)N2CCN(CCO)CC2)n1 (stereo unspecified) | -1.66
CC(C)(C)S(=O)(=O)c1ccc(N2CCN(c3ccccc3)CC2)nn1 | -8.92
CCc1nc(CN2CCN(C(=O)c3cncnc3CC)CC2)cs1 | -3.73
CN(CC(=O)NC(C)(C#N)C1CC1)Cc1nnc(C2CC2)n1C (stereo unspecified) | 1.7
COc1c(CNCc2cccnc2N2CCN(C)CC2)c(C)nn1C | 4
CC(C)n1cnnc1C1CCCN(S(=O)(=O)CC2CCCC2)C1 (stereo unspecified) | -106
COc1cc(OC)cc(N2CCC(NC(=O)c3cccn3C)CC2)c1 | -13.4
c1cnnc(N2CCCC2CNc2cnc3ccccc3n2)c1 (stereo unspecified) | -2.61
COc1cc(C(=O)NS(=O)(=O)c2cccc(C#N)c2)ccc1C | -7.93
O=C(CCN1CCc2ccccc21)N1C[C@@H](O)[C@H](N2CCOCC2)C1 | -3
CC(=O)c1ccc(NC(=O)NC(C)c2ccc3c(c2)CC(=O)N3)cc1 (stereo unspecified) | 2.82
Cc1noc(C)c1CN1C(=O)[C@H]2CC[C@@H]1CN(Cc1cscn1)C2 | -6.64
NC(=O)CN1CCCC(C(=O)N2CCC(Oc3ncccn3)CC2)C1 (stereo unspecified) | -2.67
Cc1cc(C(=O)N2CCc3ncnc(N4CCSCC4)c3CC2)[nH]n1 | -5.82
Cc1cc(NC(=O)NCC(C)N2CCOCC2)n(C)n1 (stereo unspecified) | -6.14
O=C(NC1CCC1)C1CCC2(CN(C(=O)c3ccco3)C2)O1 (stereo unspecified) | -13.3
CCc1nc(C2CCCN2C(=O)c2c[nH]c(C)n2)no1 (stereo unspecified) | 27.8
CCOCC(=O)N1CCC(Oc2ccc(Cl)cn2)CC1 | -4.45
Cc1ccc(-c2nnc(C(C)NCCn3cc(C)cn3)o2)cc1 (stereo unspecified) | -14.8
COCCNC(=O)CN1CC=C(n2c(C)nc(=O)c3ccccc32)CC1 | 0.895
CC(C)N(Cc1ccccn1)S(=O)(=O)N1CCCC1c1ccco1 (stereo unspecified) | 3.04
CC(C)SCC(=O)N1Cc2cnc(-c3ccccc3)nc2C1 | -7.54
CC(C)c1cc(NC(=O)CN2CCCC(Cn3cncn3)C2)on1 (stereo unspecified) | 17.9
CC(=O)N1CCCC(c2nccnc2-c2ccc(CO)cc2)C1 (stereo unspecified) | -5.35
Cc1cnn(C2CCCN(C(=O)c3cc(-c4ccco4)[nH]n3)C2)c1 (stereo unspecified) | -11.8
O=C([C@H]1CC[C@@H]2[C@@H](CCN2Cc2ccc(F)cc2)O1)N1CCCO1 | -9.2
CCC(Cn1ccnc1)n1cnc2scc(C)c2c1=O (stereo unspecified) | 13.9
Cc1nc(N(C)Cc2cccc(O)c2)nc2cc(S(C)(=O)=O)ccc12 | -7.8
COC(=O)N1CCCC(C(=O)NCc2cc3cccc(OC)c3o2)C1 (stereo unspecified) | -6.62
CCN1CCN(CCCNC(=O)NC(C)c2nncn2C)CC1 (stereo unspecified) | 2.39
CCc1nc(CC2CN(c3ncnc4sc(C)c(C)c34)CCO2)no1 (stereo unspecified) | -19.7
Cn1cccc(NC(=O)N2CCC(COCc3ccccc3)C2)c1=O (stereo unspecified) | 7.11
Cc1ccsc1C(=O)N1CCC2(CC(C(=O)N(C)C(C)C)=NO2)C1 (stereo unspecified) | -2.65
O=C(C1CC(=O)N(c2n[nH]c3cc(Br)ccc23)C1)N1CCOCC1 (stereo unspecified) | -11.9
CN1CCC2(CC1)CN(C(=O)c1ccncc1)Cc1ccccc12 | -2.21
Cc1nc(CN2CCN(c3nc4c(s3)c(C)nn4C)CC2)cs1 | -3.02
CN(C)CCO[C@@H]1CC[C@H]2[C@H]1OCCN2C(=O)c1ccnnc1 | 22.4
CN(C)C(=O)C1CCN(Cn2ccc(-c3ccc(F)cc3)n2)CC1 | -12.5
CC(=O)N1CCN(Cc2coc(-c3cccc(F)c3)n2)CC1 | -19.9
COc1ccc(-c2n[nH]c(C)c2CC(=O)NCC2CCCO2)cc1 (stereo unspecified) | 20.6
c1ccc(CCCN2CCCN(c3ncnc4[nH]ccc34)CC2)cc1 | -15.3

----------
- method: Human HepG2 cell viability assay in 384 well format
- Assay type: toxicity, cell-based
- Set-up: dose 125 nL, time 70.5 hour; concentration not given beside the values
- condition-set: HepG2 cells, read-out: Inhibition

compound | cytotoxicity at 70.5 h (%)
COc1ccc(C(C(=O)O)N(C)Cc2ccon2)cc1Cl (centres undefined) | -4.56
CCOCC1CN(C)Cc2cnn(CC3CCCC3)c21 (centres undefined) | -5.11
Cc1[nH]c2ccccc2c1-c1ccnc(NC[C@H](O)CO)n1 | 26.8
COc1ccc(CN2CC[C@H](NC(C)=O)[C@@H](O)CC2)c(F)c1 | -5.93
COc1ccc(C(=O)Nc2ccccc2-c2ccc(=O)n(C)n2)cc1 | 3.05
O=C(CCc1ccsc1)N1CCC(Cc2ccc(CO)cc2)C1 (centres undefined) | -3.39
CS(=O)(=O)N1CCC(CNC(=O)C2CCCC2)CC1 | -16
Cc1ccc(NC(=O)N2CCCC(O)C2)c(Br)c1 (centres undefined) | 6.64
CN(C)Cc1cnc(C2CCN(C(=O)c3cccc(Cl)c3)C2)[nH]1 (centres undefined) | -3.59
CCc1nnc(N2CCN(c3ccccc3)C(=O)C2)o1 | -7.77
O=C(N1CCOCC1)N1CCCC1c1nc(-c2ccccn2)no1 (centres undefined) | -8.93
CCc1cc(=O)n(CC(=O)N2CCCC2)c(-c2ccc(F)cc2)n1 | -5.4
Cc1nc2n(n1)CC(NCc1ccccc1OCC(=O)N(C)C)CC2 (centres undefined) | -3.73
Cc1cccc(=O)n1CCC(=O)N1CC[C@](C)(O)[C@H](C)C1 | -9.5
CCN(CC)C(=O)CSc1nnc(CCNC(=O)OC(C)(C)C)o1 | -11.3
NC(=O)CN1CCCC(c2nccnc2Oc2cccc(F)c2)C1 (centres undefined) | -9.46
CCOc1ccc2[nH]c(=O)c(CN3CCCCC3C)cc2c1 (centres undefined) | -3.42
O[C@H]1CN(Cc2cc3ccccc3o2)CC[C@@]12CCCO2 | -8.98
CC(=O)N(C)[C@H]1CC[C@]2(CC1)CNC(=O)c1cc(C)ccc1O2 | -11.3
O[C@@H]1CN(CC2CC2)CC[C@H]1N1CCN(c2ccccc2F)CC1 | 0.0849
CC(C)(C(=O)NCC(=O)NC1CC1)c1ccccc1F | 2.62
CCOc1ncccc1C(=O)NC1CCCN(c2ncccn2)C1 (centres undefined) | 1.87
COc1ccc2c(c1)C1(CCN(Cc3ccoc3)CC1)N(C)CC2 | -5.64
C[C@H]1CN(C(=O)c2ccoc2)C[C@@]12CCN(CCN(C)C)C2=O | 14.7

----------
- method: Human HepG2 cell viability assay in 384 well format
- Assay type: toxicity, cell-based
- Design: dose 125 nL, time 70.5 hour; concentration not given beside the values
- condition-set: HepG2 cells, read-out: Inhibition
property: cytotoxicity at 70.5 h

compound | recorded-measurement
CNC(=O)CS(=O)(=O)Cc1cc(Cl)c2c(c1)OCCO2 | -4.61%
CCc1ccc(S(=O)(=O)Nc2cc(C(=O)O)ccc2F)s1 | -3.74%
Cc1cc(CN2C[C@H]3CC[C@@H]2CN(C2Cc4ccccc4C2)C3)on1 | 3.93%
CN(C)C(=O)CN1CCCC1c1nc(N)ncc1-c1ccc(F)cc1 (stereo unspecified) | 2.44%
CNC(=O)C1Cn2ccnc2C2(CCN(Cc3c(C)noc3C)CC2)O1 (stereo unspecified) | 21.5%
COc1ccccc1OCCNC(=O)CN1CCc2cncnc2C1 | -5.72%
O=C(O)[C@@H]1CN(Cc2ccc3nsnc3c2)C[C@H]1c1ccncc1 | 6.98%
OC1(CN2CCCC2)COCCN(c2cc(C(F)(F)F)ccn2)C1 (stereo unspecified) | -7.83%
COc1ccc(OC)c(C2CCN(C3CCOCC3)C2)c1 (stereo unspecified) | 6.32%
CCc1ccc(S(=O)(=O)Nc2cnccc2C)s1 | -4.13%
CCC1=NC(SCC(=O)c2ccc(Cl)cc2)c2cc(CC)sc2N1 (stereo unspecified) | -11%

Just for reference, ChEMBL document CHEMBL3507680 is where these values come from.
